Sourced from patent US8778941B2

target: human TRPM8 (Homo sapiens)
Sequence (Q7Z2W7 whole entry): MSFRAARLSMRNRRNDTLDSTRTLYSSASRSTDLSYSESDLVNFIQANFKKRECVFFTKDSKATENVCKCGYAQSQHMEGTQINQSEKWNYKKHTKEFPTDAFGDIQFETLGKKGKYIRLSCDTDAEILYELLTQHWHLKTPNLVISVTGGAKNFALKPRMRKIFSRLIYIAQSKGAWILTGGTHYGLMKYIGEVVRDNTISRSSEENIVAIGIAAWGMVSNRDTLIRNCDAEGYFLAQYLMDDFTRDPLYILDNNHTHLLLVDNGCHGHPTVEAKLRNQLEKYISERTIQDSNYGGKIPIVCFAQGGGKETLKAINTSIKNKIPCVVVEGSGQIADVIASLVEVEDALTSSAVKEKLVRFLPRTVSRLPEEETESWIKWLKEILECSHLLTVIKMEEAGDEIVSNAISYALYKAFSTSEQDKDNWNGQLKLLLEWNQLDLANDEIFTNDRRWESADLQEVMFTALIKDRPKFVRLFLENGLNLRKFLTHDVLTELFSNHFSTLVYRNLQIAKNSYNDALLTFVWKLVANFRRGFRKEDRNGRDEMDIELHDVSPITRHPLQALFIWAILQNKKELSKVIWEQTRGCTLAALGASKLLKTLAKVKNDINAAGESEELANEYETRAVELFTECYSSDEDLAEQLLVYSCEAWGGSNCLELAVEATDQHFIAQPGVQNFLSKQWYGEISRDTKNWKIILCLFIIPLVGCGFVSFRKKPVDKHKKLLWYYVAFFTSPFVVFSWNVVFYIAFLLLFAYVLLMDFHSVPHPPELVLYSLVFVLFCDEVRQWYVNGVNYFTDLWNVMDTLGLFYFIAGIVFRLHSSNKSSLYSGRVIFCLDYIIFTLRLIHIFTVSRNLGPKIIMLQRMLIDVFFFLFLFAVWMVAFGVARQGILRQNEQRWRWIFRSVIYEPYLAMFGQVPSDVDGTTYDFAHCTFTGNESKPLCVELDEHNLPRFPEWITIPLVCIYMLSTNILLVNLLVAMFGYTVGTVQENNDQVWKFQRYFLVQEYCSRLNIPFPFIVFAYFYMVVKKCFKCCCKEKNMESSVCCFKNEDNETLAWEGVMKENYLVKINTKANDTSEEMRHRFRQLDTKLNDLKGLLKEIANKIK
assay: Luminescence readout assay for measuring intracellular calcium (aequorin), hTRPM8 antagonism
experimentalSetup: CHO cell line expressing human TRPM8 and aequorin; activation by icilin, L-menthol or cold buffer (table does not say which)
pIC50: −log10 of the molar value.
quantity: pIC50

1. O=C(Nc1cccnc1)NC(c1ccc(F)c(C(F)(F)F)c1)c1ncccc1F (centres unmarked) [Example 22, acetate]: 6.70
2. O=C(Nc1ccc(-c2noc(=O)[nH]2)cc1)N[C@@H](c1ccc(C(F)(F)F)cc1)c1ncccc1C(F)(F)F: 5.79
3. O=C(Nc1ccc(F)cc1F)N[C@@H](c1ccc(C(F)(F)F)cc1)c1ncccc1C(F)(F)F: 5.64

[I] O=C(Nc1ccc[nH]c1=O)N[C@@H](c1ccc(C(F)(F)F)cc1)c1ncccc1F
[II] COc1cc([N+](=O)[O-])ccc1NC(=O)N[C@@H](c1ccc(C(F)(F)F)cc1)c1ncccc1C(F)(F)F [Example 141, acetate]
Q: Which one would you say has the larger pIC50 value: I , or II ? Your answer should be the label of the entry you select.
Result: I
(I: 7.12, II: 6.44)

[A] O=C(Nc1cccnc1)N[C@@H](c1ccc(C(F)(F)F)cc1)c1ccccc1Br [Example 115, acetate]
[B] O=C(Nc1cccnc1)N[C@@H](c1cccc(F)c1)c1ncccc1C(F)(F)F
[C] C[C@H](NC(=O)N[C@@H](c1ccc(C(F)(F)F)c(F)c1)c1ncccc1C(F)(F)F)C(F)(F)F [Example 151, acetate]
Q: Rank order required: pIC50, descending. Please, when replying, give the labels in the order that was requested.
Result: C, A, B

[P] O=C(Nc1cccnc1)N[C@@H](c1cccc(Cl)c1)c1ncccc1C(F)(F)F
[Q] CC(NC(=O)N[C@@H](c1ccc(C(F)(F)F)cc1)c1ncccc1C(F)(F)F)c1ccc(Br)cc1 (some centres unmarked) [Example 101, acetate]
Q: Which one would you say has the larger pIC50 value: P , or Q ? Your answer should be the label of the entry you select.
Result: P

---

target: human TRPM8 (Homo sapiens)
assay: Luminescence readout assay for measuring intracellular calcium (aequorin), hTRPM8 antagonism
experimentalSetup: CHO cell line expressing human TRPM8 and aequorin; activation by icilin, L-menthol or cold buffer (table does not say which)
quantity: IC50 (nM)

1) CC(=O)c1ccc(NC(=O)N[C@@H](c2ccc(C(F)(F)F)cc2)c2ncccc2C(F)(F)F)cc1 [Example 138, acetate]: 3720

[1] O=C(NCCc1c(Cl)cccc1Cl)N[C@@H](c1ccc(C(F)(F)F)cc1)c1ncccc1C(F)(F)F
[2] COc1ccc(OC)c(CCNC(=O)N[C@@H](c2ccc(C(F)(F)F)cc2)c2ncccc2C(F)(F)F)c1 [Example 110, acetate]
[3] O=C(Nc1cccnc1)N[C@@H](c1cnc2c(Cl)cccc2c1)c1ncccc1C(F)(F)F
Q: Order the entries by their reported IC50, beginning at the minimum. Please, when replying, give the labels in the order that was requested.
Result: 3, 2, 1
(3: 88 nM, 2: 190 nM, 1: 673 nM)

[P] O=C(Nc1cccnc1)NC(c1ccc(C(F)(F)F)cc1)c1cccnc1Br (centres unmarked) [Example 114, acetate]
[Q] COc1ccc([C@@H](C)NC(=O)N[C@@H](c2ccc(C(F)(F)F)cc2)c2ncccc2C(F)(F)F)cc1 [Example 130, acetate]
[R] N#Cc1cccc(NC(=O)N[C@@H](c2ccc(C(F)(F)F)cc2)c2ncccc2C(F)(F)F)c1 [Example 97, acetate]
[S] O=C(NCc1ccc(F)cc1)N[C@@H](c1ccc(C(F)(F)F)cc1)c1ncccc1C(F)(F)F [Example 144, acetate]
Q: Rank order required: IC50, descending. Please, when replying, give the labels in the order that was requested.
Result: Q, P, S, R
(Q: 3790 nM, P: 886 nM, S: 541 nM, R: 80 nM)

[P] O=C(NCc1ccc(Cl)cc1Cl)N[C@@H](c1ccc(C(F)(F)F)cc1)c1ncccc1C(F)(F)F [Example 135, acetate]
[Q] Cc1ccccc1NC(=O)N[C@@H](c1ccc(C(F)(F)F)cc1)c1ncccc1C(F)(F)F [Example 145, acetate]
[R] CC(C)(C)OC(=O)N[C@@H](c1ccc(C(F)(F)F)cc1)c1ncccc1Br
[S] CC(C)(C)c1ccccc1NC(=O)N[C@@H](c1ccc(C(F)(F)F)cc1)c1ncccc1C(F)(F)F [Example 71, acetate]
Q: Rank order required: IC50, descending. Please, when replying, give the labels in the order that was requested.
Result: S, P, Q, R
(S: 5710 nM, P: 829 nM, Q: 474 nM, R: 299 nM)
